Assay: qHTS Assay for Identifying Gametocytocidal Compounds (AID 743244);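 note: % is set by controls: 0 for no effect and ±100 for the full control effect; actives lower the fluorescent signal which means gametocytes are killed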
Conditions: P. falciparum 3D7 stage III-V gametocytes, alamarBlue, 72 h; hits give low values
Source text: Malaria cases and deaths have dropped 50% in 29 countries since 2000 due to the combined effects of long-lasting insecticidal bednets, indoor residual spraying, and artemisinin-based combination therapies (ACTs). […] Within live cells, the nonfluorescent resazurin is reduced to resorufin, a bright red fluorescence dye. Fluorescence decreases upon treatment of gametocytocidal compounds. […]
Inconclusive results are not listed.
attribute-measured: max response (%)
Could you give me the number in %? Just the number is fine.

Consider the worked cases shown below.
>>> endpoint_result("O=C1CN(O)C(c2ccccc2)=c2cc(Cl)ccc2=N1")
0.268
>>> endpoint_result("Cc1ccccc1-n1c(CF)nc2ccc(N)cc2c1=O")
-0.397
>>> endpoint_result("CCCCCCCCCCCCCC(=O)O[C@@H]1[C@@H](C)[C@@]2(O)[C@@H](C=C(CO)C[C@@]3(O)C(=O)C(C)=C[C@@H]23)C2C(C)(C)[C@@]21OC(C)=O (stereo partly specified)")
-2.77
>>> endpoint_result("C=CCN1CC[C@]23c4c5ccc(O)c4O[C@H]2/C(=N/NC(=O)c2ccccc2)CC[C@@]3(O)[C@H]1C5")
8.77
>>> endpoint_result("O=CC=O")
1.75

The record that follows has no max response shown yet.
Just so you know, measured max response for O=C(O)c1cc[c]([Hg][Cl])cc1 came out at 33.9
